Dear all, this message contains pIC50 results, target or system Purified pig DAAO (Sus scrofa, UniProt P00371).
pIC50: −log10 of the molar value.

# annotated cases, reported pIC50 shown
1. O=C(O)c1cc(CCCc2ccccc2)c[nH]1 [Compound 45]; > 4.00
2. O=C(O)c1ccc(Cc2ccccc2)[nH]1 [Compound 32, 5-benzyl-1H-pyrrole-2-carboxylic acid]; < 4.00
3. O=C(O)c1n[nH]cc1[N+](=O)[O-]; > 6.00

Form entry - test system: Purified pig DAAO (Sus scrofa, UniProt P00371); read-out: pIC50; molecule: CC(C)CCc1cc(C(=O)O)n[nH]1 [Compound 48]
Sequence (P00371 whole entry): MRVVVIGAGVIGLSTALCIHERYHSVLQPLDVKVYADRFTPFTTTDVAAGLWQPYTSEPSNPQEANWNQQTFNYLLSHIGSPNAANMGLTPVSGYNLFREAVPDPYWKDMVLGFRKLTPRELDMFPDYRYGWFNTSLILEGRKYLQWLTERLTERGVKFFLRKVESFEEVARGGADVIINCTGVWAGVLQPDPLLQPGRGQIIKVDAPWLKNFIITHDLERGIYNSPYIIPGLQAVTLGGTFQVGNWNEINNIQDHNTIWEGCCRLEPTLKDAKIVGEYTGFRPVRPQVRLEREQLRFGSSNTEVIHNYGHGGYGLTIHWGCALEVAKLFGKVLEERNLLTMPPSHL
> 5.00

Form entry - test system: Purified pig DAAO (Sus scrofa, UniProt P00371); read-out: pIC50; molecule: O=C(O)c1cc(CCc2ccccc2Br)c[nH]1 [Compound 65]
> 6.00

###

List of Rat Brain Uptake Rate, pmol/g brain/sec values.
assay: Rat brain uptake, carotid perfusion; format: in vivo; conditions: 30 second perfusion into left hemisphere, PBS pH 7.4; N of 4 rats
The reply should consist of the numeric value with the unit placed after it.

See these solved cases before continuing.
1) O=C(O)c1cc(CCc2ccc(Cl)cc2)c[nH]1; 204 pmol/g brain/sec
2) O=C(O)c1n[nH]c2c1CCC2 [drawing 70]; 6 pmol/g brain/sec
3) CC(C)CCCc1cc(C(=O)O)n[nH]1; 17 pmol/g brain/sec

Look up Rat Brain Uptake Rate, pmol/g brain/sec: O=C(O)c1cc(CCc2ccccc2)[nH]n1
6 pmol/g brain/sec

###

pIC50: −log10 of the molar value.
Test system Purified pig DAAO (Sus scrofa, UniProt P00371), pIC50 listed for each of the compounds.

Solved cases (3 shown):
1) O=C(O)c1cc(CCCC2CCCC2)c[nH]1; > 5.00
2) O=C(O)c1n[nH]c2c1CCC2 [drawing 44]; > 6.00
3) O=C(O)c1cc(CCc2ccc(Cl)cc2)n[nH]1; > 6.00

Look up pIC50 with Purified pig DAAO (Sus scrofa, UniProt P00371) for this compound: O=C(O)c1cc(CCc2ccc(Cl)cc2)c(Br)[nH]1
> 7.00

Param readout = pIC50; param system = Purified pig DAAO (Sus scrofa, UniProt P00371); param query = O=C(O)c1cc2c([nH]1)CCCC2 ; response: value
> 5.00

Hello, I am looking for reported pIC50 with Purified pig DAAO (Sus scrofa, UniProt P00371) for CC(Cc1ccccc1)c1cc(C(=O)O)n[nH]1 (stereo not drawn) . Could you help?
> 6.00

Which pIC50 is reported with Purified pig DAAO (Sus scrofa, UniProt P00371) for this entry: O=C(O)c1cc(CCc2ccccc2)c[nH]1 ?
> 6.00

Notebook: pull reported pIC50 for Purified pig DAAO (Sus scrofa, UniProt P00371), entry COc1ccc(CCc2cc(C(=O)O)n[nH]2)cc1
> 6.00

Checklist item: pIC50 tested on Purified pig DAAO (Sus scrofa, UniProt P00371), entry O=C(O)c1n[nH]c2c1CCCC2Cc1ccccc1 (stereo not drawn) , value?
> 5.00

What is its pIC50 for Purified pig DAAO (Sus scrofa, UniProt P00371)? Entry: O=C(O)c1n[nH]c2c1CCCC2
> 6.00

pIC50 of CC(Cc1cc(C(=O)O)n[nH]1)c1ccccc1 (stereo not drawn) on Purified pig DAAO (Sus scrofa, UniProt P00371)?
> 6.00

Hello, I am looking for reported pIC50 with Purified pig DAAO (Sus scrofa, UniProt P00371) for O=C(Cc1ccc(Cl)cc1)c1c[nH]c(C(=O)O)c1 . Could you help?
> 4.00

What measured pIC50 is associated with CC1CCCC(C)(C)C1CCc1cc(C(=O)O)n[nH]1 (stereo not drawn) on Purified pig DAAO (Sus scrofa, UniProt P00371)?
> 4.00
